Target: OsSMF1 (Oryza sativa, UniProt Q6ZLB0 1-436)
Sequence: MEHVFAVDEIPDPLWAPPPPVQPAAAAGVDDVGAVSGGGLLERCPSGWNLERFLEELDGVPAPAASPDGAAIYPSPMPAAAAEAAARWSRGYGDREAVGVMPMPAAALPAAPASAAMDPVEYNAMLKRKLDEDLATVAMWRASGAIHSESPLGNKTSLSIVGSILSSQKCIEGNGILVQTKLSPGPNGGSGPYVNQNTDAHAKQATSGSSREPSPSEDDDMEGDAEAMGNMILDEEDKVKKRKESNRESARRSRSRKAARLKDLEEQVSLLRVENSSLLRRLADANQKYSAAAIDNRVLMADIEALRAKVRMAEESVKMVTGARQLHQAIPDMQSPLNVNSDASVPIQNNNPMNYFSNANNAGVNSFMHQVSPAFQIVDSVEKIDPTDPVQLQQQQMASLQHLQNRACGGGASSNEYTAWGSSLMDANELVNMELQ
Experiment: protein-binding microarray (RPBM); PBS, 2% BSA, 51.3 ng/ul salmon testes DNA, 50 uM zinc acetate, 200 nM TF, 25 C, 1 h; high values mean tight binding
Details: protein: recombinant; tags: N-terminal polyhistidine and DsRed monomer fusion (pET32a); chain copies: 2; label: CyDye5-dUTP incorporated in the synthesized complementary strand; 3' TTTTT single-stranded linker to array surface; dsDNA, one strand shown
In all, about 39,000 sequences were measured (“fluorescence intensity (a.u.)”: median about 4,300, highest 2% from about 39,000 on). Many of the other results were omitted from the sample, so the highest values are more common in it than they were.
Assay Endpoint: binding signal

Example entries and their recorded answers appear below.
AGATTTGTGCTCTGACCCACTTCACTCACTTAGTCTCTAGCGGAGTCACCTAGTGCAG ... 3630 fluorescence intensity (a.u.)
TAACTTTGGAACAGGCTGATAAGGGTGGATCCTGCGGTTGCGGAGTCACCTAGTGCAG ... 3440 fluorescence intensity (a.u.)

Attention now turns to another entry.
Task: Entry "GTGTAGTTACCTTCTCGTAGGTGTCATCGAGGATGATGGCCGGAGTCACCTAGTGCAG" : reported binding signal = ?
Output: 3910 fluorescence intensity (a.u.)
